The measured values listed here are drawn from patent US20250313612A1.

# SYSTEM_TESTED: RSV F protein of recombinant mKate-RSV, subtype B (18537) (Respiratory syncytial virus subtype B …, UniProt P13843 26-574)
# EXPERIMENTAL_DETAILS: cell-based or functional assay
EXPERIMENTAL_ENDPOINT: Neut IC50 subtype B (µg/mL)

[[record]]
binder = "ADI-14497 (antibody, V domains shown, full-length IgG (yeast-expressed); also called Antibody Number 58; Ab# 58) VH: QITLKESGPTLVKPTQTLTLTCTFSGFSLTTRGVGVGWIRQPPGKALEFLGFIHWDDDKTYSPSLRRRLTITKDTSNNEVVLTMTNMDPVDTATYYCVHSDLYDSGGYYLYYFDYWGQGTLVTVSS VL: EIVMTQSPSSLSASVGDRVTITCRASQPIPSYVNWYQQRPGKAPKLLIYAASNLQSGVSSKFSGRGFGTDFTLTIDTLQPEDFATYYCQQVYTSPYTFGQGTKLEIK"
test_value = 0.116

[[record]]
binder = "ADI-14505 (antibody, V domains shown) VH: QVQLVQSGAEVKKPGASVKVSCKASGNSFNDFYMHWVRQAPGQGLEWMGWIDPNNGGANYAQKFHGRVTMTRDSSINTAYMELSRLRSDDTAVYYCASEPPGVGFGLIPHYYFDNWGQGTLVTVSS VL: EIVMTQSPDSLAVSLGERATINCKSSQNVLDTSNNKNYLAWYQQKPGQPPRLLIYWASARGSGVPDRFSGSGSGTHFTLTISSLQAEDVAVYYCQQYFSIPPTFGQGTKVEIK"
test_value = 0.018

[[record]]
binder = "ADI-14471 (antibody, V domains shown, full-length IgG (yeast-expressed); also called Antibody Number 34; Ab# 34) VH: QVQLVQSGAEVKKPGSSVKVSCKASGGTFGSYAVIWVRQAPGQGLEWMGHIIPVFGTINNAQKFQGRLTLSADESTGTVYMGLSSLRSDDTAVYFCATKRYCSDPSCHGLWYFDLWGRGTLVTVSS VL: DIRLTQSPLSLPVTPGEPASISCRSSQSLLDSDDGNTYLDWYLQKPGQSPQVLIYMLSYRASGVPDRFSGSGSGTDFTLKISRVEAEDVGVYYCMQRAEFPYTFGQGTKLEIK"
test_value = 0.116

[[record]]
binder = "ADI-14485 (antibody, V domains shown, full-length IgG (yeast-expressed); also called Antibody Number 46; Ab# 46) VH: EVQLVESGAEVKRPGSSVKVSCKVVGGSFSNYAISWVRQAPGQGPEYLGGIIPAFRTAKYAKKFQDRLTITADESTSTAYMEMRGLTSDDTGLYYCARPEGDFGDLKWLRSPFDYWGQGTLVTVSS VL: EIVLTQSPATLSVSPGQRVTLSCRASQGVSINLAWYQQKPGQPPRLLIYGASTRATDIPARFSGSGSGTDFTLTISSLQSEDFAVYYCQQYDDWPPQLTFGPGTKLEIK"
test_value = 2.81

[[record]]
binder = "ADI-14521 (antibody, V domains shown) VH: QVQLVQSGTEVKKPGASVKVSCLTSGYTFTHFGISWVRQAPGQGLEWMGWFSAYNGNTKYAQKFQGRITLTIDTSTSIAYLELRSLRSDDTAVYYCARDPPSLTAAGTLDYWGQGTLVTVSS VL: DIRLTQSPLSLPVTLGQPASISCSSNQSLVYSDGNTYLSWFQQRPGQSPRRLIYKVSDRDSGVPDRFSGSGSGTDFTLKISRVEAEDVGVYYCMQATDWPRTFGQGTKVEIK"
test_value = 0.123

